Cited source: ChEMBL document CHEMBL4706480

- experimental_system: Protein kinase C gamma type (Homo sapiens)
- assay_comment: Inhibition of PKC-gamma (unknown origin) assessed as residual activity at 10 uM
Catalogue of Activity readings, one per entry.

These solved cases illustrate the format of a correct answer.
[[record]]
input_smiles = "O=c1[nH]cc(Nc2ccccc2)cc1-c1ccccc1"
property_name = "Activity"
reading = "> 85%"

[[record]]
input_smiles = "O=c1[nH]cc(Nc2ccccc2)cc1-c1cccc2cccnc12"
property_name = "Activity"
reading = "> 85%"

[[record]]
input_smiles = "O=c1[nH]cc(Nc2ccccc2)cc1-c1cncnc1"
property_name = "Activity"
reading = "> 85%"

[[record]]
input_smiles = "O=c1[nH]cc(Nc2ccccc2)cc1-c1ccncc1"
property_name = "Activity"
reading = "> 85%"

[[record]]
input_smiles = "O=c1[nH]cc(Nc2ccccc2)cc1-c1c[nH]c2ccccc12"
property_name = "Activity"
reading = "> 85%"

[[record]]
input_smiles = "O=c1[nH]cc(Nc2ccccc2)cc1-c1ccc(F)cc1"
property_name = "Activity"
reading = "> 85%"


Turning to the following compound.
Quick check: Activity of "O=c1[nH]cc(Nc2ccccc2)cc1-c1cccc2cnccc12" ? > 85%
